I'd appreciate it if you could supply IC50 values for the items below.
# system.name: T1, rat GALR2 (galanin receptor type 2) (rat, UniProt O08726 1-372)
# T1 construct: Expressed in CHO/dhfr- cells; The assays used the membrane fraction of these cells; also called rat galanin receptor GALR2
# T1 sequence: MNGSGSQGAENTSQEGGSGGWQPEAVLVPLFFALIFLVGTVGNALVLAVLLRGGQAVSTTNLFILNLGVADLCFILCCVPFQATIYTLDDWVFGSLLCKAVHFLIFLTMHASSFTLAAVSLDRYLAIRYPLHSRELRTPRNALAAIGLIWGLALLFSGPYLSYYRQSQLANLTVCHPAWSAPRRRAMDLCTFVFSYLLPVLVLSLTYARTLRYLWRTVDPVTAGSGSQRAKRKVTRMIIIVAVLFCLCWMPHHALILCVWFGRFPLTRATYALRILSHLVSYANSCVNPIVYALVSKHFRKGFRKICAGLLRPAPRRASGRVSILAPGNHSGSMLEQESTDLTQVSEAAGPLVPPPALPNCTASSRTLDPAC
# protocol.description: displacement of [125I] rat galanin from GALR2-expressing CHO cell membrane fraction
Response body: numeric value in nM, unit text excluded.

# IC50 (binder: APVHRGRGGWTLNSAGYLLGPVLHPPSRAE (also called porcine (1-30)) [porcine ligand peptide (1-30)] ) is 1.4

Reported IC50 of APVHRGRGGWTLNSAGYLLGPVLHPPSRAEGGGK (also called porcine (1-34)) [porcine ligand peptide (1-34)] : 1.4
